Tested on: MALME-3M melanoma
Assay: NCI-60 one-dose screen, 48 h (100 = growth as untreated, 0 = no growth, -100 = all killed)
Conditions: 10 µM unless noted
Description: Cells are grown in 96 well plates and exposed to the test compound for 48 hours. Compounds are tested at a single concentration, which is 10^-5 M for most compounds. The reported endpoint is percent growth (GI% or GIPRCNT), where numbers from 0 - 100% represent growth inhibition, and numbers from -100% - 0 represent cell death. For example, a value of 40 represents 60% growth inhibition. A value of 0 means no net growth occurred over the course of the experiment. […]
This is part of a sample that, as a whole, favours compounds with a hit. Of some 83,000 tested, about 20% had one in any assay.
result.type: growth (%)
Please respond with the number in % and leave the unit unwritten.

Example entries and their recorded answers appear below.
>>> observed_measurement("C/C1=C/C(=O)O[C@@H]2C[C@@H](CC[C@H](C)/C=C\\C=C\\CC1)O[C@@](OCCc1ccccc1)([C@@H]1CSC(=O)N1)C2")
-10.3
>>> observed_measurement("C/C(=N/OC(=O)N(C)C)c1ccc(Cl)cc1Cl")
97.6
>>> observed_measurement("O=C(CCF)c1ccc(O)cc1")
108
>>> observed_measurement("Cc1cccc(N(C)c2cccc3c2C(=O)[Se]C3)c1C")
63.7
>>> observed_measurement("Oc1ccc2c3c1O[C@H]1c4[nH]c5ccccc5c4C[C@@]4(O)C(C2)N(CC2CC2)CC[C@]314")
122
>>> observed_measurement("CN1C(=O)NC(=O)C(N=Nc2ccc(Cl)cc2)C1=O (stereo unspecified)")
134

Consider the molecule "Oc1ccc(O)c2c1C1(Cl)C(Cl)=C(Cl)C2(Cl)C1(Cl)Cl" . State its measured growth.
20

Determine from records and report growth for "O=C(O)c1cccc(CCl)c1"
110

Reference source: PubChem BioAssay (NCI)
